Test system: A-431
ASSAY EXPLANATION: Antiproliferative activity against human A431 cells after 48 hrs by MTT assay
Format: functional, cell-based
DETAILS: A-431, 48 h
READOUT NAME: IC50 (nM)
Number in nM, nothing else.

Query: Supply IC50 value. Item: O=c1[nH]cc(F)c(=O)[nH]1 [FLUOROURACIL]
Response: 18
